Procedure details: chemical genetic growth profiling, strain panel (AID 1159580);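 note: tested at 20 µM; growth read once vehicle control cultures reached saturation at 30 °C; 1 = growth at the plate median or of vehicle wells; lower values mean less growth of the strain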
Test parameters: S. cerevisiae deletion strains, growth OD, locus YDR226W, strain ADK1, active compounds read low
The whole screen tested about 5,500 compounds, of which about 2,000 (36%) were called active. Another 18% or so got no clear call; they are omitted. The list shows a part of the results.
Observable: normalized growth
Reply briefly: the number, and no unit.

Use the examples below as a reference point.
{"Compound": "CC1CCC(C(C)C)C(N(Cc2ccccc2)C(=O)c2ccccc2)C1 (stereo not given)", "normalized growth": 0.98}
{"Compound": "COc1ccc(Nc2nc(NC(=O)Nc3ccc(Cl)cc3)n[nH]2)cc1", "normalized growth": 0.994}
{"Compound": "Cc1ccc(NC(=S)C(C#N)C(=O)N2CCOCC2)c(C)c1 (stereo not given)", "normalized growth": 0.98}
{"Compound": "CC(C)(C)C1=C(C#N)C(c2c(Cl)cccc2Cl)C(C#N)=C(N)O1 (stereo not given)", "normalized growth": 0.979}
{"Compound": "Cc1ccc(S(=O)(=O)Nc2nc(-c3ccc(C)c(Cl)c3)c(C)s2)cc1", "normalized growth": 0.985}
{"Compound": "O=C(NNc1ccccc1)c1cc(-c2ccc(Cl)cc2)oc1C(F)(F)F", "normalized growth": 0.951}

Looking up O=S(=O)(NCc1cc(Cl)cc(Cl)c1)c1cc(C(F)(F)F)cc(C(F)(F)F)c1 , I found its normalized growth recorded as 0.992

Looking up Cc1c(S(=O)(=O)Nc2cccc([N+](=O)[O-])c2)sc2ccc(Cl)cc12 , I found its normalized growth recorded as 0.966

Looking up CC1=CC(=O)N(c2ccc(F)c(Cl)c2)C1=O , I found its normalized growth recorded as 0.97

Looking up Clc1cccc(Nc2ncc(-c3ccc4c(c3)OCCCO4)s2)c1 , I found its normalized growth recorded as 0.988

Looking up CC1C(c2ccccc2)N(C)C(c2ccccc2)CC1(O)c1ccc(F)cc1 (stereo not given) , I found its normalized growth recorded as 0.992

Looking up CCOC(=O)c1sc(S(C)=NC(=O)Nc2ccc(Cl)cc2)c2c1CCC=C2 (stereo not given) , I found its normalized growth recorded as 0.963

Looking up Cn1nccc1-c1cc(Cl)cc(Cl)c1O , I found its normalized growth recorded as 0.981

Looking up COc1ccc(-c2csc(-c3cccnc3)n2)cc1 , I found its normalized growth recorded as 0.946

Looking up O=C(Nc1ccncc1)c1cc(-c2ccccc2)oc1C(F)(F)F , I found its normalized growth recorded as 0.989

Looking up FC(F)(F)c1cc(NC(=S)SCCSC(=S)Nc2cc(C(F)(F)F)cc(C(F)(F)F)c2)cc(C(F)(F)F)c1 , I found its normalized growth recorded as 0.994

* * *

Procedure details: chemical genetic growth profiling, strain panel (AID 1159580);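 note: tested at 20 µM; growth read once vehicle control cultures reached saturation at 30 °C; 1 = growth at the plate median or of vehicle wells; lower values mean less growth of the strain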
Test parameters: S. cerevisiae deletion strains, growth OD, locus YER155C, strain BEM2 (second series)
Hit rate of the full screen: of about 5,500 compounds, about 2,000 (36%) were called active. Another 18% or so got no clear call; they are omitted. No stated cut-off is given here; in the data, active means normalized growth mostly below about 0.91 (no sharp cut-off); inconclusive means no clear call, values can overlap the other calls; inactive means mostly above about 0.92. The list shows a part of the results.
Parameter call: string, one of active, inactive

Please review the entries below; each comes with its answer.
{"Compound": "C=CCS(=O)C[C@H](N)C(=O)O (stereo partly specified)", "Assigned label": "inactive"}
{"Compound": "CC(=O)N[C@@H](CCC(=O)O)C(=O)O", "Assigned label": "inactive"}
{"Compound": "Clc1ccc(COC(Cn2ccnc2)c2ccc(Cl)cc2Cl)cc1 (stereo unspecified)", "Assigned label": "active"}
{"Compound": "NCCCNCCSP(=O)(O)O", "Assigned label": "inactive"}
{"Compound": "CCC(C)C(=O)c1c(O)c(C)c2oc3c(C)c(O)c(C(=O)C(C)CC)c(O)c3c2c1O (stereo unspecified)", "Assigned label": "inactive"}

Qu. Recorded test outcome, item COc1cc(NS(C)(=O)=O)ccc1Cc1c2ccccc2nc2ccccc12
Ans. inactive

Qu. Recorded test outcome, item CC(=O)O[C@]1(C)CC[C@@]23CC1C(C)(C)[C@@H]2CC[C@H]3C
Ans. inactive

Qu. Recorded test outcome, item COc1ccc2c(c1)OCC(Cc1ccc(OC)c(OC(C)=O)c1)C2=O (stereo unspecified)
Ans. inactive

Qu. Recorded test outcome, item Clc1ccc(C(Cn2ccnc2)OCc2ccsc2Cl)c(Cl)c1 (stereo unspecified)
Ans. active

Qu. Recorded test outcome, item COc1c(C)c2c(c(O)c1C/C=C(\C)CCC(=O)O)C(=O)OC2
Ans. active

Qu. Recorded test outcome, item CCCCCCCCCCCCCC(=O)OC1C(C)C2(O)C(C=C(CO)CC3(O)C(=O)C(C)=CC32)C2C(C)(C)C12OC(C)=O (stereo unspecified)
Ans. inactive

Qu. Recorded test outcome, item CC1C/C=C/C=C/C=C/C=C/C(O[C@@H]2O[C@H](C)[C@@H](O)[C@H](N)[C@@H]2O)CC2OC(O)(CC(O)CC3OC3/C=C/C(=O)O1)CC(O)C2C(=O)O (stereo partly specified)
Ans. active

Qu. Recorded test outcome, item CCC(=O)OC1[C@@H]2CC3=C4CC(=O)O[C@@H](c5ccoc5)[C@]4(C)CCC3[C@@](C)(C2=O)[C@@H](CC(=O)OC)C1(C)C (stereo partly specified)
Ans. inactive

Qu. Recorded test outcome, item Clc1ccc(COC(Cn2ccnc2)c2ccc(Cl)cc2Cl)c(Cl)c1 (stereo unspecified)
Ans. active

Qu. Recorded test outcome, item O=C(O)CCC1NCC2CC1CN1CCCCC21 (stereo unspecified)
Ans. inactive

Qu. Recorded test outcome, item Clc1ccc(CO/N=C(/Cn2ccnc2)c2ccc(Cl)cc2Cl)c(Cl)c1
Ans. active

Qu. Recorded test outcome, item Clc1ccc(CSC(Cn2ccnc2)c2ccc(Cl)cc2Cl)cc1 (stereo unspecified)
Ans. active

Qu. Recorded test outcome, item C[C@H]1C[C@@H](O)[C@]2(O)[C@@]13CC(=O)OC[C@@]2(C)[C@](C)(O)C(=O)C3
Ans. inactive

Qu. Recorded test outcome, item Cc1nnc(NS(=O)(=O)c2ccc(N)cc2)s1
Ans. inactive

Qu. Recorded test outcome, item CC(=O)O[C@@H]1CC2C(C)(C)C(=O)C3OC3[C@]2(C)C2CC[C@@]3(C)[C@H](c4ccoc4)OC(=O)C4OC43[C@@]21C (stereo partly specified)
Ans. inactive

Qu. Recorded test outcome, item CCCNC(=O)NS(=O)(=O)c1ccc(Cl)cc1
Ans. inactive
